Procedure details: BSK_BE3C_SRB: Viability Assessment in the BioMAP Diversity Plus: BE3C Assay (AID 2283028);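 note: measured 24 h after chemical dosing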
Test settings: primary human bronchial epithelial cells
Activity calls are given as the source filed them. Rule for the calls: active = hit-call score of the fitted dose curve at least 0.9, where 1 is the maximum; inactive = score below 0.9.
The reply should name one outcome from Y = active, N = inactive

Solved entries (count: 2):
Molecule | Assigned category
OCC(CO)(CO)CO | N
CCCCCCOC(=O)CC(CC(=O)OCCCCCC)(OC(=O)CCC)C(=O)OCCCCCC | N

Per the assay record, what outcome was assigned to "c1ccc2c(c1)-c1cccc3c1c-2cc1ccccc13" ? N

Ok, now "CNC(C)=O" N

Ok, now "NNC(=O)c1ccncc1" N

Ok, now "CC(=O)c1ccccc1" N

Ok, now "CCCCCCCCCCCCCCCCOS(=O)(=O)O" Y

Ok, now "OCCC(F)(F)C(F)(F)C(F)(F)C(F)(F)F" N

Ok, now "CCCc1ccccc1" N

Ok, now CCCCCCCC1CCC(=O)O1 (stereo unspecified) N

Ok, now "NC(=O)N(O)[C@@H]1COc2cc(OCc3ccccc3)ccc21" N

Ok, now "O=C(Cl)C(F)(F)C(F)(F)C(F)(F)C(=O)Cl" N
